# tested-on: Fyn (UniProt P06241)
# Sequence (P06241 whole entry, looked up): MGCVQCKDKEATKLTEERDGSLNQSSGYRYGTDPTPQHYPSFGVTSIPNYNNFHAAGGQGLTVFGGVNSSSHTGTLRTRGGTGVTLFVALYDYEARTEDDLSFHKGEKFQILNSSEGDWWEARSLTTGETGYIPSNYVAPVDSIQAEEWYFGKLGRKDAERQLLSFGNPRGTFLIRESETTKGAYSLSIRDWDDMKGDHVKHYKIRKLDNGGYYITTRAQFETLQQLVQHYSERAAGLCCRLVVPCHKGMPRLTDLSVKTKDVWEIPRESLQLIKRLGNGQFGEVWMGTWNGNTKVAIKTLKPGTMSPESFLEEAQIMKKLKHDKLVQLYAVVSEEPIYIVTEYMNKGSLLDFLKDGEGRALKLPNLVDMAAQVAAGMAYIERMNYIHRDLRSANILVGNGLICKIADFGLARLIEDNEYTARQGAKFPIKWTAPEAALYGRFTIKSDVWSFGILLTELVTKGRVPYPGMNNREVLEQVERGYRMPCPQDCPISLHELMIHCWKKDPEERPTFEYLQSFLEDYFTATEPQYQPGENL
# protocol-description: phosphorylation enrichment, bacterial display (enrichment ratio); higher = better substrate or ligand; peptides without Tyr show the background;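 further: 11-residue human phosphosite peptides and single-mutation variants displayed on the E. coli surface, counted by deep sequencing, each peptide's frequency after selection divided by its frequency in the unselected input library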;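 further: frequency after pTyr selection over input frequency; kinase dosed for 20-30% of maximal phosphorylation in three min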
Lab note: class by phosphorylation enrichment, see low range: < 0.5; mid range: ≥ 0.5 and < 0.8; high range: ≥ 0.8

Each sequence maps to one class by phosphorylation enrichment. Which class for ISKTWYSAEQF [CD207_Y217_P213S] ?
mid range

Lookup RLCQDYDTIGP [ANK1_Y1073]
high range

Lookup DFTSRYLNASD [PKHD1_Y828]
low range

Lookup TEGNGYISFNE [LCP1_Y28_D24E]
mid range

Lookup EKLIQYCQSKG [AKR1B1_Y199]
low range

Lookup ALVDTYCRHNF [HLA-DRB1_Y107_A103L_YF]
low range

Lookup QEIATYRRQLE [KRT14_Y415_L418Q]
high range

Lookup CTTIHYNFMCI [TP53_Y234_N239I_YF]
low range

Lookup PDDPNYSLVDD [PSTPIP2_Y323]
high range

Lookup TFHNTYHSHMR [IL1RAPL1_Y615_Q618H]
low range

Lookup LHSEAYLKFNE [PBRM1_Y1610_I1614N_YF]
high range

Lookup CATIHYNYMCN [TP53_Y234_T230A]
low range

Lookup LFNQDYPIHSV [GATM_Y227_YF]
high range
